Known pIC50 of a selection of compounds
Molecular target: SAE1 (Homo sapiens (Human), UniProt Q9UBT2)
Sequence (Q9UBE0 whole entry): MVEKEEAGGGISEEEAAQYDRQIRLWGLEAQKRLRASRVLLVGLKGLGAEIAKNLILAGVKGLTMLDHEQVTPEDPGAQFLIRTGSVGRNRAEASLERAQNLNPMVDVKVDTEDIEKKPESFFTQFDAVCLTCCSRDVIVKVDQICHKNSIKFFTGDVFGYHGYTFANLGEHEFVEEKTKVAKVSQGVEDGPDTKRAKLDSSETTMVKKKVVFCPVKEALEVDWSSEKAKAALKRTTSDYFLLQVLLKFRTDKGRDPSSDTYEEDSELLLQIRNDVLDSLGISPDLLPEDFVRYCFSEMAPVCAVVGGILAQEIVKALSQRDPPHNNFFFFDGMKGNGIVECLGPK
Sequence (Q9UBT2 whole entry): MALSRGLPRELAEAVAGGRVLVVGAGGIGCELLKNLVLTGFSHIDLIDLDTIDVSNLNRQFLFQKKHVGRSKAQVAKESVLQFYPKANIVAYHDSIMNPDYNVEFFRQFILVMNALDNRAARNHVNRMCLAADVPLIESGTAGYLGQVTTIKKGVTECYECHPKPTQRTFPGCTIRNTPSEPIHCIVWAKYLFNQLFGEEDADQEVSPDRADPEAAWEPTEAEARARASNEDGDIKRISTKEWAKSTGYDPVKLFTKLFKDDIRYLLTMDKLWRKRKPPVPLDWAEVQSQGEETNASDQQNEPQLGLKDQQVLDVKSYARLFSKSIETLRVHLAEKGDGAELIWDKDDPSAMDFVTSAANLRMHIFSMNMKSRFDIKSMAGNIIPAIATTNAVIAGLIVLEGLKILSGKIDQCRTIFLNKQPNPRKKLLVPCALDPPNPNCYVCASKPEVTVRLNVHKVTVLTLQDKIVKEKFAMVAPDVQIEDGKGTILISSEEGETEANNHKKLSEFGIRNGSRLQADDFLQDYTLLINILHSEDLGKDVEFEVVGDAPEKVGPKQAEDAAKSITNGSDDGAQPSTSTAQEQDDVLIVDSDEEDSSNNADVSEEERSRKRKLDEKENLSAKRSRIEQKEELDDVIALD
Kindly note that pIC50 refers to -log10 of the concentration in mol/L and answer with the value alone.

| SMILES | SYSTEM UNDER TEST | pIC50 |
| --- | --- | --- |
| CCn1cc(-c2ccccc2[C@@H]2CN(C(=O)/C=C/C(F)(F)F)Cc3sc(C#N)cc32)c(C(F)(F)F)n1 | SAE1 (Homo sapiens (Human), UniProt Q9UBT2) | 6.41 |

For record `CC(C)n1cc(-c2ccccc2[C@@H]2CN(C(=O)/C=C/CN(C)C)Cc3sc(C#N)cc32)c(C(F)(F)F)n1` the listed pIC50 is 5.52

`CCn1cc(-c2ccccc2[C@@H]2CN(C(=O)/C=C/[C@H]3CCCN3C)Cc3sc(C#N)cc32)c(C(F)(F)F)n1` yielded pIC50 of 5.25

Looking up `CCn1cc(-c2ccccc2[C@@H]2CN(C(=O)/C=C/CNC)Cc3sc(C#N)cc32)c(C(F)(F)F)n1` , I found its pIC50 recorded as 5.48
